Experiment: Toxicity liver stage against HepG2, at 10uM
Format: cell-based
Parameters: test concentration 10 uM, cell line HepG2-A16-CD81EGFP
Settings: human, HepG2-A16-CD81EGFP cells; read-out: INHIBITION
ENDPOINT_LABEL: cytotoxicity at 10 µM (%)
Give the quantity in %, number only.

Guide cases for cytotoxicity at 10 µM, answers given:
c1ccc(CN2CCN(Cc3cscn3)CC2)cc1; -2.69
CS(=O)(=O)N1CCC2(CC1)CC(CC(=O)NCC1CC1)c1ccccc12 (stereo unspecified); 7.65
CN(C)C1CCN(C(=O)CCc2cc(Br)cs2)CC1; -18

Request: Consider the compound shown here: `CN([C@@H]1CCC[C@@H](n2ccnc2)[C@@H]1O)S(=O)(=O)c1cn(C)cn1` What is its recorded cytotoxicity at 10 µM?
Response: 0.57

Request: Follow-up item: O=C(Cc1cccnc1)N1CCC2(CCN(C3CCOC3)CC2)C1 (stereo unspecified)
Response: 5.08

Request: Follow-up item: `CCC[C@H]1CN(Cc2ccc(N(C)C)nc2)C[C@@H]1NC(=O)CO`
Response: 9.23

Reference source for all entries: ChEMBL document CHEMBL4513216
